Data provenance is a melting point compilation (Tetko et al.; mined from patent text by program, amines drawn as free bases though some values may be those of a salt).

Measurement kind: melting point (°C)
Answer with a number only, understood to be in °C.

Lab book: melting point of CCOC(=O)C1=C(C)N2CCNC2=C(C(=O)OCC)C1c1cccs1 (stereo not given) noted as 134

Lab book: melting point of COC(=O)c1ccc(C(O)c2cc3cc(Cl)ccc3n2S(=O)(=O)c2ccc(C(C)C)cc2)cc1 (stereo not given) noted as 71

Lab book: melting point of CCOCCn1c(NC2CCN(C(=O)c3ccccc3N)C(Cc3ccccc3)C2)nc2ccccc21 (stereo not given) noted as 197

---

Measurement kind: melting point

Worked examples follow.
molecule="CSC(=NS(=O)(=O)N1CCCCC1)N1CC(c2ccccc2)C(c2ccc(Cl)cc2)=N1 (stereo not drawn)" measurement_kind="melting point" result="192 to 194 °C"
molecule=COc1ccc(-c2sc3cc(OC)ccc3c2C(=O)c2c(OC)cccc2OC)cc1 measurement_kind="melting point" result="146 to 152 °C"
molecule=CN(C(=O)C(C)(C)c1cc(C(C)(C)C)c(O)c(C(C)(C)C)c1)C1CC(C)(C)NC(C)(C)C1 measurement_kind="melting point" result="168 to 173 °C"
molecule=CS(=O)(=O)c1cccc(C2=C(c3ccccc3)C(=O)N(c3ccc(F)cc3)C2)c1 measurement_kind="melting point" result="207 to 209 °C"
molecule=CCCN(c1cccc(-c2ccnc3c([N+](=O)[O-])cnn23)c1)S(=O)(=O)c1ccccc1 measurement_kind="melting point" result="154 to 156 °C"

Lab book: melting point of CC(C)c1cc(C(C)(C)C)cc(-c2ccc(F)cc2)c1O noted as 109 to 111 °C

Lab book: melting point of CCc1nc2c(cnn2CC)c(NC2CCOCC2)c1CNC(=O)c1cc(C)cc(C(=O)NCc2cccc(-c3cccc(CC4CCN(C)CC4)c3)c2)c1 noted as 119 to 121 °C

Lab book: melting point of Cc1ccc(C#N)c(N2CCc3ccccc3CC2)n1 noted as 78.5 to 80.7 °C

Lab book: melting point of CC1NN2C=CC=NC2C1C#N (stereo not drawn) noted as 170 to 172 °C

Lab book: melting point of COc1ccc(C2=NN(c3ccc(C(C)(C)C)cc3)C(=O)[C@H]3CC=CC[C@@H]23)cc1OC (relative stereo) noted as 197 to 199 °C

Lab book: melting point of Cc1c(C(=O)NCc2ccc3c(Br)c(O)ccc3c2)oc2ccccc12 noted as 194 to 197 °C

Lab book: melting point of C=C(c1ccccc1)c1ccc2nc(N)n(S(=O)(=O)N(C)C)c2c1 noted as 201 to 202 °C

Lab book: melting point of CCN(CC)CCCN1CCC(O)(c2ccccc2)C(C(=O)c2ccccc2)C1 (stereo not drawn) noted as 76 to 78 °C

Lab book: melting point of CSc1nccc(C)c1NC(=O)CCCCCSc1nc2ccccc2o1 noted as 122 to 124 °C
